Data provenance is ChEMBL document CHEMBL4014294.

# Tested on: MCF7
# protocol-description: Growth inhibition of human MCF7 cells at 30 uM after 72 hrs by MTT assay relative to control
# Assay type: functional
# condition: MCF7, 72 h, read-out: GI
quantity: inhibition of growth at 30 µM

// returns inhibition of growth at 30 µM for CCC[C@H]1[C@@H]2CCc3cc(OCc4cn([C@@H]5O[C@H](CO)[C@@H](O)[C@H](O)[C@H]5O)nn4)ccc3[C@H]2CC[C@]1(C)CO with MCF7; value = < 20%

Further cases:
// returns inhibition of growth at 30 µM for CCC[C@H]1[C@@H]2CCc3cc(OCc4cn(C[C@H]5O[C@@H](OC)[C@H](OC(=O)c6ccccc6)[C@@H]5OC(=O)c5ccccc5)nn4)ccc3[C@H]2CC[C@]1(C)/C=N/O with MCF7; value = < 20%

// returns inhibition of growth at 30 µM for CCC[C@H]1[C@@H]2CCc3cc(OCc4cn([C@@H]5O[C@H](COC(C)=O)[C@@H](OC(C)=O)[C@H](OC(C)=O)[C@H]5OC(C)=O)nn4)ccc3[C@H]2CC[C@]1(C)/C=N/O with MCF7; value = 67.7%

// returns inhibition of growth at 30 µM for CCC[C@H]1[C@@H]2CCc3cc(OCc4cn(C[C@H]5O[C@H](OC)[C@@H](OC(=O)c6ccccc6)[C@@H](OC(=O)c6ccccc6)[C@@H]5OC(=O)c5ccccc5)nn4)ccc3[C@H]2CC[C@]1(C)CO with MCF7; value = < 20%

// returns inhibition of growth at 30 µM for CCC[C@H]1[C@@H]2CCc3cc(OCc4cn(C[C@H]5O[C@H](OC)[C@H](OC(=O)c6ccccc6)[C@@H](OC(=O)c6ccccc6)[C@@H]5OC(=O)c5ccccc5)nn4)ccc3[C@H]2CC[C@]1(C)/C=N/O with MCF7; value = < 20%
